target.system: FAK recombinant protein (Homo sapiens (Human))
Sequence (Q05397 whole entry): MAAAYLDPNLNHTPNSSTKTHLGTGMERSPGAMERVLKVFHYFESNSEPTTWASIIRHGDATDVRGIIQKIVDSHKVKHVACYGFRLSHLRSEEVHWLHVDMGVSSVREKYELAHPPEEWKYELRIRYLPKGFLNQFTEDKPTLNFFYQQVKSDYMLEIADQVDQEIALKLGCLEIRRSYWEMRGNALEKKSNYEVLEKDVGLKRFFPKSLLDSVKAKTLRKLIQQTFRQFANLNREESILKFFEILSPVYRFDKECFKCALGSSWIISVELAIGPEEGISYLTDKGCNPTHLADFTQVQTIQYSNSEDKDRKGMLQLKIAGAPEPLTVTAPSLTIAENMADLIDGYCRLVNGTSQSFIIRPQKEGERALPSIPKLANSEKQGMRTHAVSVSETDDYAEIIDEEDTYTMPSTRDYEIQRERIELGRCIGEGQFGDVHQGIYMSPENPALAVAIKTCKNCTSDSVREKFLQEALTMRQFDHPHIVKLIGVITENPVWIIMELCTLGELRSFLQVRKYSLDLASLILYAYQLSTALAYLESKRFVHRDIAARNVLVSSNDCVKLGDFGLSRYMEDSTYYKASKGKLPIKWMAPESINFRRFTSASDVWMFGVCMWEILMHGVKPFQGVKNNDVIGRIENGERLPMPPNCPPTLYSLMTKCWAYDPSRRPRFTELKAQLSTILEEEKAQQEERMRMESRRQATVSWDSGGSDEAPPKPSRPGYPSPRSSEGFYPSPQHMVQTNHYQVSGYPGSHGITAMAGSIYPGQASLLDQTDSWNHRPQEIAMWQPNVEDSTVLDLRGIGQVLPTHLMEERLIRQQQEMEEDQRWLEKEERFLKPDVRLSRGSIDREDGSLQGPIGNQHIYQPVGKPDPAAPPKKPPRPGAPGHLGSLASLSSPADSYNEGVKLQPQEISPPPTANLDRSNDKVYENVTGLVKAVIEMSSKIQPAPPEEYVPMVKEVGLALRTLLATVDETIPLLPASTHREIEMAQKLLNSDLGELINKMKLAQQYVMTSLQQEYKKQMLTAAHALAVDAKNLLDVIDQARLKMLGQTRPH
measurement.description: Inhibitory activity against FAK enzyme (HTRF, TK substrate)
measure.name: IC50

molecule | result
COc1cc(N2CCN(C)CC2)c(F)cc1Nc1ncc(Cl)c(Oc2cccc3c2C(=O)N(C)C32CC2)n1 [Compound 140] | < 20 nM
COc1cc(C(=O)NC2CCn3cnnc3C2)ccc1Nc1ncc(C(F)(F)F)c(Oc2cccc3c2C(=O)N(C)C32CC2)n1 (stereo not shown) [Compound 32] | < 20 nM
COc1cc(N2CC3(CCN(C)CC3)C2)ccc1Nc1ncc(Cl)c(Oc2cccc3c2C(=O)N(C)C32CCCCC2)n1 [Compound 210] | < 20 nM
COc1cc(N2CCC3(CC2)CN(C)C3)c(F)cc1Nc1ncc(Cl)c(Oc2cccc3c2C(=O)N(C)C32CC2)n1 [Compound 148] | < 20 nM
